- Test system: FLT3(D835V);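 note: KINOMEscan scanMAX binding as percent activity remaining versus control; lower means stronger binding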
- conditionDetails: Compound Concentration (nM):1000
Please respond with reported Percent Control for every item in the list.
Answer format: numeric, % implied, no suffix.

Asked: # lookup: Percent Control of O=C1Nc2ccc(C(=O)c3ccco3)cc2C1=Cc1cc(Cl)c(O)c(Cl)c1 [GW406108X]
Given back: 2.2

Asked: Request: NS(=O)(=O)c1ccc(N/N=C2\C(=O)Nc3ccc(-c4cnco4)cc32)cc1
Given back: 2.2

Asked: Request: COc1cccc(-n2ncc3c(N/N=C/c4ccncc4)ncnc32)c1 [GW784752X]
Given back: 4

Asked: Request: Cl.c1ccc(Cc2nc3ccc(Nc4ncnc5ccccc45)cc3[nH]2)cc1 [GR269666A]
Given back: 83

Asked: Request: CCc1ccc(Oc2nccc(-c3c(-c4ccc(F)cc4)ncn3C3CCNCC3)n2)cc1
Given back: 100
